Below, each of the binders is paired with its reported dH value.
- Measurement target: T1, Grafted FtsH-S6 ATPase, His6x-tagged (wild-type) (Escherichia coli | , UniProt P43686 337-418)
- T1 chain: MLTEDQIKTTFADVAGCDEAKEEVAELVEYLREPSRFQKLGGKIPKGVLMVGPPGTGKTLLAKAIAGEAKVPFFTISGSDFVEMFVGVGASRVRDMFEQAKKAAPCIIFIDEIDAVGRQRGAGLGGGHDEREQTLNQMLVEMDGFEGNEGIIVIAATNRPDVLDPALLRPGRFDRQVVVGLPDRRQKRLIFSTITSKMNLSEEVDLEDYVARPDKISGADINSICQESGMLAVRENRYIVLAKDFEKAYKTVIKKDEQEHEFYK
- Method summary: ITC
Give a bare numeral; the unit kcal/mol is implied.

>  <Binder>
gankyrin-His6x R41A (natural protein) MEGCVSNLMVCNLAYSGKLEELKESILADKSLATRTDQDSATALHWACSAGHTEIVEFLLQLGVPVNDKDDAGWSPLHIAASAGRDEIVKALLGKGAQVNAVNQNGCTPLHYAASKNRHEIAVMLLEGGANPDAKDHYEATAMHRAAAKGNLKMIHILLYYKASTNIQDTEGNTPLHLACDEERVEEAKLLVSQGASIYIENKEEKTPLQVAKGGLGLILKR

>  <dH (kcal/mol)>
-17.1

$$$$
>  <Binder>
gankyrin K116A (natural protein) MEGCVSNLMVCNLAYSGKLEELKESILADKSLATRTDQDSRTALHWACSAGHTEIVEFLLQLGVPVNDKDDAGWSPLHIAASAGRDEIVKALLGKGAQVNAVNQNGCTPLHYAASANRHEIAVMLLEGGANPDAKDHYEATAMHRAAAKGNLKMIHILLYYKASTNIQDTEGNTPLHLACDEERVEEAKLLVSQGASIYIENKEEKTPLQVAKGGLGLILKR

>  <dH (kcal/mol)>
-24

$$$$

Task: Report dH, nothing else, for this binder: gankyrin-His6x R41A/K116A (natural protein) MEGCVSNLMVCNLAYSGKLEELKESILADKSLATRTDQDSATALHWACSAGHTEIVEFLLQLGVPVNDKDDAGWSPLHIAASAGRDEIVKALLGKGAQVNAVNQNGCTPLHYAASANRHEIAVMLLEGGANPDAKDHYEATAMHRAAAKGNLKMIHILLYYKASTNIQDTEGNTPLHLACDEERVEEAKLLVSQGASIYIENKEEKTPLQVAKGGLGLILKR
Output: -4.9

Value source: paper PMC4230329
